# credit: patent US20240342292A1

Target: L858R/T790M/C797S EGFR (Homo sapiens, UniProt P00533, C797S/L858R/T790M)
Construct: expressed in transfected cells; host or cells: H1975 clone #25 (lentiviral over-expression, endogenous EGFR knocked out by sgRNA)
Sequence (P00533 25-1210 T790M/C797S/L858R): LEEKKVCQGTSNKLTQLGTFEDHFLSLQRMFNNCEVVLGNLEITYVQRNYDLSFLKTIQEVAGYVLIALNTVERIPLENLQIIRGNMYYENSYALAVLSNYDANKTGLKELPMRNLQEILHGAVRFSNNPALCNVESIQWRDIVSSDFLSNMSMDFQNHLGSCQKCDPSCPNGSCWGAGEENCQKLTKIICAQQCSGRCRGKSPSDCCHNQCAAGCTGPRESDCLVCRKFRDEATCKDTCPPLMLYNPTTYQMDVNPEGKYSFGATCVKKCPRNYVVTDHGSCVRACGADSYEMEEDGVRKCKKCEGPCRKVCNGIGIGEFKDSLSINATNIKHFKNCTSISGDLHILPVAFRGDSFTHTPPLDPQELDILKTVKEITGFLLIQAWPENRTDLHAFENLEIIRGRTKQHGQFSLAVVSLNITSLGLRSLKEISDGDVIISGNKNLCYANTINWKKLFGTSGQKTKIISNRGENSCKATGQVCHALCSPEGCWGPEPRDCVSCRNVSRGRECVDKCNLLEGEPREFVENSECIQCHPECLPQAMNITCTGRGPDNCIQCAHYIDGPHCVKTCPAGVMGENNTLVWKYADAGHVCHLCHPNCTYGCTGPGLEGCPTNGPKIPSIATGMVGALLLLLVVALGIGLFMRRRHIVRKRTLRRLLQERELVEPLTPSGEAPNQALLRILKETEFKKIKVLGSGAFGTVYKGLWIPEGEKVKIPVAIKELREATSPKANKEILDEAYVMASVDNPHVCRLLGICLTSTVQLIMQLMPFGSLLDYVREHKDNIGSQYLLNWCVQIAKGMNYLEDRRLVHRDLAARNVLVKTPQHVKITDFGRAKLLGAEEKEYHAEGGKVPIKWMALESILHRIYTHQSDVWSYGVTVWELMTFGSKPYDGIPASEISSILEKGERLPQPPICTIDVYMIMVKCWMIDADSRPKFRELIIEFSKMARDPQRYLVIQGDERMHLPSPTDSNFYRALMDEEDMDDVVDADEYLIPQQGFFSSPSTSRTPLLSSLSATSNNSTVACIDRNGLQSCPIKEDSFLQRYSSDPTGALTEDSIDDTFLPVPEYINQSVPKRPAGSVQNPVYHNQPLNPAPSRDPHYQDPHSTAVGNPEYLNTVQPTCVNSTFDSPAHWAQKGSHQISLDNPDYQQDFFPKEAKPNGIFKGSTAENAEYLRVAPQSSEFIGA
Test: EGFR degradation HTRF assay in H1975-clone #25 (LTC) cells
Format: cell-based
Conditions: H1975 # 25-LTC (L858R/T790M/C797S), 16h treatment, HTRF
The following molecules are shown together with reported DC50 values.
Quick reminder: number only, in pM, skip the unit.

Look over these answered cases.
molecule	readout-type	reported-result
Cc1cc2cc(n1)-c1cnn(C)c1OCCC[C@@H](C)CN1/C(=N/C2=O)Nc2ccc(C(=O)N3CC4(C3)CN(C(=O)C3CN(c5cc(F)c([C@H]6CCC(=O)NC6=O)c(F)c5)C3)C4)cc21 [Example 229]	DC50	1270
Cc1cc2cc(n1)-c1cnn(C)c1OCCC[C@@H](C)CN1/C(=N/C2=O)Nc2ccc(N3CCN(CCCNc4cc(F)c([C@H]5CCC(=O)NC5=O)c(F)c4)CC3)cc21 [Example 400]	DC50	915
Cc1cc2cc(n1)-c1cnn(C)c1OCCC[C@@H](C)CN1/C(=N/C2=O)Nc2ccc(CN3C[C@@H]4C[C@H]3CN4C(=O)[C@@H]3CCN(c4cc(F)c([C@H]5CCC(=O)NC5=O)c(F)c4)C3)cc21 [Example 82]	DC50	600
Cc1cc2cc(n1)-c1cnn(C)c1OCCC[C@@H](C)CN1/C(=N/C2=O)Nc2ccc(CN3CC4(CCN(CCc5cc(F)c([C@H]6CCC(=O)NC6=O)c(F)c5)CC4)C3)cc21 [Example 93]	DC50	1900
Cc1cc2cc(n1)-c1cnn(C)c1OCCC[C@@H](C)CN1/C(=N/C2=O)Nc2ccc(C(=O)N3CCC(N(C)CCc4cc(F)c([C@H]5CCC(=O)NC5=O)c(F)c4)CC3)cc21 [Example 299]	DC50	468

Summary for this molecule, Cc1cc2cc(n1)-c1cnn(C)c1OCCC[C@@H](C)CN1/C(=N/C2=O)Nc2ccc(C(=O)N3CC[C@H]4CN(CCc5cc(F)c([C@H]6CCC(=O)NC6=O)c(F)c5)CC[C@H]43)cc21 [Example 304] : DC50 is 610

Summary for this molecule, COC[C@@H]1CN(c2ccc3c(c2)N2C[C@H]4C[C@@H]4CCOc4c(cnn4C)-c4cc(cc(C)n4)C(=O)/N=C/2N3)CCN1C1CCN(c2cc(F)c([C@H]3CCC(=O)NC3=O)c(F)c2)CC1 [Example 468] : DC50 is 2120

Summary for this molecule, Cc1cc2cc(n1)-c1cnn(C)c1OCCC[C@@H](C)CN1/C(=N/C2=O)Nc2ccc(C(=O)N3CCN(CCCc4cc(F)c([C@H]5CCC(=O)NC5=O)c(F)c4)CC3)cc21 [Example 341] : DC50 is 540

Summary for this molecule, Cc1cc2cc(n1)-c1cnn(C)c1OCCC[C@@H](C)CN1/C(=N/C2=O)Nc2ccc(C(=O)N3CCC(NCCc4cc(F)c([C@H]5CCC(=O)NC5=O)c(F)c4)CC3)cc21 [Example 300] : DC50 is 653

Summary for this molecule, Cc1cc2cc(n1)-c1cnn(C)c1OCCC[C@@H](C)CN1/C(=N/C2=O)Nc2ccc(N3CCN(C4CCN(c5cnc([C@H]6CCC(=O)NC6=O)c(F)c5)CC4)CC3=O)cc21 (single isomer, unassigned) [Example 460] : DC50 is 431
